# assay method text: yeast display, Sf9 membrane polyspecificity reagent, FACS + sequencing; frameworks hold sequencing errors
measured metric: polyreactivity (PSR sort gate)

construct sequence	result
QVQLVESGGGLVQAGGSLRLSCAASGSIFSTYAMGWYRQAPGKERELVAAISSSGSTYYADSVKGRFTLSRDNAKNTVYLQMNSLKPEDTAVYYCAAGKYRRTSRYRYDSWGQGTQVTVSS	high polyreactivity
QVQLVESGGGLVQAGGSLRLSCAASGRTFYKNAMGWYRQAPGKERELVATITSGGSTNYADSVKGRFTISRDNAKNTVYLQMNSLKPEDTAVYYCAAAKPVQFRIAQAHVGYWGQGTQVTVSS	low polyreactivity
QVQLVESGGGLVQAGGSLRLSCAASGSIFQYYGMGWYRQAPGKERELVASISRSGGSTYYADSVKGRFTISRDNAKNTVYLQMNSLKPEDTAVYYCNKRTYRQLSSWDYTYYYWGQGTQVTVSS	low polyreactivity
QVQLVESGGGLVQAGGSLRLSCAASGFIFYNYAMGWYRQAPGKERELVAAITGGGSTNYADSVKGRLTISRDNPKNTVYLQMNSLKPEDTAVYYCAAEEGPPWSRYDYWGQGTQVTVSS	low polyreactivity
QVHLVESGGGLVQAGGSLRLSCAASGRTFVFNAMGWYRQAPGKEREFVAAITWGGGSTYYADSVKGRFTISRDNAKNTVYLQMNSLKPEDTADYYCARPTTYGYYYWGQGTQVTVSS	high polyreactivity
QVQLVESGGGLVQAGGILRLSCAASGFTIYYYAIGWYRQAPGKERELVASITSGGSTYYADSVKGRFTISRDNAKNSVYLQMNSLKPEDTAVYYCAKTRFHYKEGDYWGQGTQVTVSS	low polyreactivity
QVQLQESGGCLVQADGSLRLSCAASGSIFGYYYMGWYRQAPGKDRELVATINICGITNYADSVKGRFTISRDNAKNTVYLQMNSLKPDDTAVYYCAADEYAQRDLGYWGQGTQVTVSS	low polyreactivity
QVQLVESGGGLVQSGGSLRLSCAASGRISYYYAMGWYRQAPGKERELVARISKSGGSTYYADSVKGRFTISRDNAKNTVYLQMNSLKPVVTAVYFCAARWKTGYNYWGEGTQVTVSS	high polyreactivity
QVQLVESGGGLVQAGGSLRLSCAASGRIFGSYALGWYRQAPGKERELVAAISSGGSTSYADSVKGRFTISRDNAKNTVYLQMNSLKPEDTAVDYCNRLRLFRGRGDYWGQGTQVTVSS	high polyreactivity
QVQLVESGGGLVQAGGSLRLSCAASGFTFLPAYAMGWYRQAPGKERELVAAITRGGSTYYADSVKGRFTISRDNAKNTVYLQMNSLKPEDSAVYYCNADQKFGFYRSVGDDYWGQGTQVTVSS	low polyreactivity
QVQLVESGGGLVQAGGSLRLSCAASGFTFYIYAMGWYRQAPGKERELVAAITTSGDSTYYADSVKGRFTISRDNAKNTVYLQMNSLKPEDTAVYYCAAEYWYTYSWGQGTQVTVLS	low polyreactivity
QVQLVESGGGLVQAGGSLRLSCAASGFIFASYAMGWYRQAPGKERELVAAISSRGGRTYYADSVKGRFTISRDNAKNTVSLQMNSLKPEDTAVYYCAAENYWLAWYKGYDYCGQGTQVTVSS	high polyreactivity
QVQLVESGGGLVQAGGSLRLSCAASGRIFNRYAMGWYRQAPGKERELVAAISRGGGTNYADSVKGRFTISRDNAKNTVYLQMNSLKPEDTAVYYCAAARGHNVETSTTYDRGDYWGQGTQVTVSS	low polyreactivity
QVQLVESGGGLVQAGGSLRLSCAASGSIFGLYAMGWYRPAPGKERELVAAISRTGGSTYYADSVKGRFTLSRDNAKNTVYFQMHSLKPEETAVYYCAAKYQYTQYDYWGQGTQVTVSS	high polyreactivity
QVQLVESGGGLVQAGGSLRLSCAASGSTLYYNAMGWYRQAPGKERELVAAISWSGGSTYYADSVKGRFTISRDNAKNTVYLQMNSLKPEDTAVYYCAADVNYYQHRLYYWGQGTQVTVSS	low polyreactivity
QFQLVESGGGLDQAGGSLRISCAASGSTFSYNAIGWYRQAPGKERELVAAITSRGGSTRYADSVKGRFTISRDNAKNTVYLQMNSLNPEDTAVYYCARPYSYYPYSTVNYWGQGTQVTVSS	high polyreactivity
QVQLVESGGGLVQAGGSLRLSCAASGFIFYAYAMGWYRQAPGKERELVAAIDSGGNTYADSVKGRFTISRDNAKNTVYLQMNSLKPEDTAVYYCAVDGGEFSSYGYWGQGTQVTVSS	low polyreactivity
QVQLVDSGGGLVQAGGSLRLSCAASGSIFQQYAMGWYRQAPGKESELVAAISWGDGSTYYADSVKGRFPISRDNAKNTVYLQMNSLKPEDTAVYYCNAYASAPLWSLEDDYWGQGTQVTVSS	low polyreactivity
QVQLVESGGGLVQAGGSLRLSCAASGYTFIHNAMGWYRQAPGKERELVAAINRSGGITNYADSVKGRFTISRDNAKNTVYLQMNSLKPEDTAVYYCNADVDPLPPRYLHREVLKEYNYWGQGTQVTVSS	low polyreactivity
QVQLVESGGGLVQAGGSLRLSCAASGSIFVIYAMGWYRQAPGKERELVATISGGGGTNYADSVKGRFTISRDNAKNTVYLQMNSLNPEDTAVYYCAARSKVHRWRKRYDYWGQGTQVTVSS	high polyreactivity
QVQLVESGGGLVQAGGSLRLSCAASGLTFEHNAMGWYRQAPGKEREFVAVISWRGTSTYYADSVKGRFTISRDNAKNTVYLQMNSLKPEDTPVYYCATRYYGDDGYRYDHWGQGTQVTVSS	high polyreactivity
